Entry source: ChEMBL document CHEMBL2417504

# protocol_notes: Solubility of the compound in water after 40 hrs
# Assay type: physicochemical
# recorded_conditions: water
This listing pairs compounds with measured solubility at 40 h.
measurement_name: solubility at 40 h (µg/mL)

>>> quantitative_result("COCCOc1cc2cc(C(=O)N3C[C@@H](CCl)c4c3cc(O)c3[nH]c(C(=O)OC)cc43)[nH]c2c(OCCOC)c1OCCOC")
740
>>> quantitative_result("COCCOCCOc1cc2cc(C(=O)N3C[C@@H](CCl)c4c3cc(O)c3[nH]c(C(=O)OC)cc43)[nH]c2c(OCCOCCOC)c1OCCOCCOC")
2000
>>> quantitative_result("COC(=O)c1cc2c3c(cc(O)c2[nH]1)N(C(=O)c1cc2cc(OC)c(OC)c(OC)c2[nH]1)C[C@H]3CCl")
460

====

# protocol_notes: Induction of w794 DNA alkylation (unknown origin) after 2 hrs by densitometric analysis relative to duocarmycin SA
Doc: threshold 0.009 (exclusive). Items with fold change (FC) beneath it return True; others return False.

>>> qualitative_label("COCCOCCOCCOCCOCCOc1cc2cc(C(=O)N3C[C@@H](CCl)c4c3cc(O)c3[nH]c(C(=O)OC)cc43)[nH]c2c(OCCOCCOCCOCCOCCOC)c1OCCOCCOCCOCCOCCOC")
"True"
>>> qualitative_label("COCCOCCOCCOCCOc1cc2cc(C(=O)N3C[C@@H](CCl)c4c3cc(O)c3[nH]c(C(=O)OC)cc43)[nH]c2c(OCCOCCOCCOCCOC)c1OCCOCCOCCOCCOC")
"True"
>>> qualitative_label("COCCOc1cc2cc(C(=O)N3C[C@@H](CCl)c4c3cc(O)c3[nH]c(C(=O)OC)cc43)[nH]c2c(OCCOC)c1OCCOC")
"False"
>>> qualitative_label("COCCOCCOc1cc2cc(C(=O)N3C[C@@H](CCl)c4c3cc(O)c3[nH]c(C(=O)OC)cc43)[nH]c2c(OCCOCCOC)c1OCCOCCOC")
"False"
>>> qualitative_label("COC(=O)c1cc2c3c(cc(O)c2[nH]1)N(C(=O)c1cc2cc(OC)c(OC)c(OC)c2[nH]1)C[C@H]3CCl")
"False"
